The molecules below have reported AC50 for Vasopressin V2 receptor (Homo sapiens).

These solved cases illustrate the format of a correct answer.
# MOLECULE, AC50
data = [
    ("CC(CN(C)C)C(C)(O)Cc1ccc(Cl)cc1 (stereo not drawn)", "> 30 µM"),
    ("O=C1OC(OC(=O)c2cccnc2Nc2cccc(C(F)(F)F)c2)c2ccccc21 (stereo not drawn) [TALNIFLUMATE]", "> 30 µM"),
    ("CCOC(=O)c1c(CSc2ccccc2)n(C)c2cc(Br)c(O)c(CN(C)C)c12", "> 30 µM"),
]

// switching to the query molecule
### Prompt Bench note: what AC50 did "CO/N=C(\C(=O)N[C@@H]1C(=O)N2C(C(=O)O)=CCS[C@H]12)c1csc(N)n1" show?
### Response > 30 µM
